Attribution: ChEMBL document CHEMBL1255394

# System: Campylobacter sp.
# procedure_summary: Antibacterial activity against erythromycin resistant Campylobacter sp. by agar plate dilution method
# Format: functional

compound	unit_of_measure	relation_operator	MIC90
COc1c(N2C[C@@H]3CCCN[C@@H]3C2)c(F)cc2c(=O)c(C(=O)O)cn(C3CC3)c12 [MOXIFLOXACIN]	µg/mL	=	16
C[C@@H](O)[C@H]1C(=O)N2C(C(=O)O)=C(S[C@@H]3CN[C@H](C(=O)N(C)C)C3)[C@H](C)[C@H]12 [MEROPENEM]	µg/mL	=	0.25
O=C(N[C@H](CO)[C@H](O)c1ccc([N+](=O)[O-])cc1)C(Cl)Cl [CHLORAMPHENICOL]	µg/mL	=	16
CN(C)[C@@H]1C(O)=C(C(N)=O)C(=O)[C@@]2(O)C(O)=C3C(=O)c4c(O)cccc4[C@@](C)(O)[C@H]3C[C@@H]12 [TETRACYCLINE]	µg/mL	>	128
O=C(O)c1cn(C2CC2)c2cc(N3CCNCC3)c(F)cc2c1=O [CIPROFLOXACIN]	µg/mL	>	32

----------
// reported MIC90 for each item listed
# Test system: Campylobacter sp.
# procedure_summary: Antibacterial activity against erythromycin resistant Campylobacter sp. by agar plate dilution method
# Format: functional

molecule	unit_of_measure	relation_operator	MIC90
CC[C@H]1OC(=O)[C@H](C)C(=O)[C@H](C)[C@@H](O[C@@H]2O[C@H](C)C[C@H](N(C)C)[C@H]2O)[C@](C)(OC)C[C@@H](C)C(=O)[C@H](C)[C@H]2N(CCCCn3cnc(-c4cccnc4)c3)C(=O)O[C@]12C	mg/L	>	128
CC[C@H]1OC(=O)[C@H](C)[C@@H](O[C@H]2C[C@@](C)(OC)[C@@H](O)[C@H](C)O2)[C@H](C)[C@@H](O[C@@H]2O[C@H](C)C[C@H](N(C)C)[C@H]2O)[C@](C)(O)C[C@@H](C)CN(C)[C@H](C)[C@@H](O)[C@]1(C)O	mg/L	>	128
CCn1cc(C(=O)O)c(=O)c2cc(F)c(N3CCNCC3)cc21	mg/L	>	64
CC[C@H]1OC(=O)[C@H](C)[C@@H](O[C@H]2C[C@@](C)(OC)[C@@H](O)[C@H](C)O2)[C@H](C)[C@@H](O[C@@H]2O[C@H](C)C[C@H](N(C)C)[C@H]2O)[C@](C)(O)C[C@@H](C)C(=O)[C@H](C)[C@@H](O)[C@]1(C)O	mg/L	>	128
C[C@@H](O)[C@H]1C(=O)N2C(C(=O)O)=C(SCCNC=N)C[C@H]12 [IMIPENEM ANHYDROUS]	mg/L	=	0.5
CCn1cc(C(=O)O)c(=O)c2ccc(C)nc21	mg/L	=	128
N[C@@H]1CN(c2c(F)cc3c(=O)c(C(=O)O)cn([C@@H]4C[C@@H]4F)c3c2Cl)CC12CC2 [SITAFLOXACIN ANHYDROUS]	mg/L	=	0.5
CCC[C@@H]1C[C@@H](C(=O)N[C@@H]([C@H]2O[C@H](SC)[C@H](O)[C@@H](O)[C@H]2O)[C@H](C)Cl)N(C)C1	mg/L	=	64
CC1COc2c(N3CCN(C)CC3)c(F)cc3c(=O)c(C(=O)O)cn1c23 (stereo unspecified)	mg/L	=	64
CC1(C)S[C@@H]2[C@H](NC(=O)[C@H](N)c3ccccc3)C(=O)N2[C@H]1C(=O)O	mg/L	=	128
CC[C@H]1OC(=O)[C@H](C)[C@@H](O[C@H]2C[C@@](C)(OC)[C@@H](O)[C@H](C)O2)[C@H](C)[C@@H](O[C@@H]2O[C@H](C)C[C@H](N(C)C)[C@H]2O)[C@](C)(OC)C[C@@H](C)C(=O)[C@H](C)[C@@H](O)[C@]1(C)O	mg/L	>	128
